Target: T1, human CD3e (T-cell surface glycoprotein CD3 epsilon chain) (human, UniProt P07766 23-207)
T1 construct: Target of the anti-hCD3e antibodies on human PBMC, Jurkat cells and cells expressing human CD3e; on T cells it is part of the CD3/TCR complex; also called hCD3e; CD3e on human PBMC
Experiment: flow cytometry, human PBMC, antibody 10 µg/mL, anti-human IgG Fc-Alexa Fluor647 (1:500), anti-hTcRβ-PerCP (1:30)
result type: upper left quadrant, percent of cells AF647+ / hTcRβ-PerCP-

## Input What measured upper left quadrant, percent of cells AF647+ / hTcRβ-PerCP- goes with 1B1-H4K1-IgG1-LALA (antibody, V domains shown, Humanized; human IgG1 with LALA mutations; also called H4K1 (humanized 1B1)) VH: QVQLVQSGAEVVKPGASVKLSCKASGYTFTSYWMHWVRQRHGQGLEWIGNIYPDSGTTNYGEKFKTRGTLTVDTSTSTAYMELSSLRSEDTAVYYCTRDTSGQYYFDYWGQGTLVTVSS VL: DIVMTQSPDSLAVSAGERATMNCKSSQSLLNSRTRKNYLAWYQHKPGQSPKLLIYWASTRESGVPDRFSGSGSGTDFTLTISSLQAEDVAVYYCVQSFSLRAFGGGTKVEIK ?
## Output 8.51%
